Item-by-item account of GVIA iPLA2 XI(50)
Biological target: human GVIA iPLA2 (Homo sapiens, UniProt O60733)
Sequence (O60733 whole entry): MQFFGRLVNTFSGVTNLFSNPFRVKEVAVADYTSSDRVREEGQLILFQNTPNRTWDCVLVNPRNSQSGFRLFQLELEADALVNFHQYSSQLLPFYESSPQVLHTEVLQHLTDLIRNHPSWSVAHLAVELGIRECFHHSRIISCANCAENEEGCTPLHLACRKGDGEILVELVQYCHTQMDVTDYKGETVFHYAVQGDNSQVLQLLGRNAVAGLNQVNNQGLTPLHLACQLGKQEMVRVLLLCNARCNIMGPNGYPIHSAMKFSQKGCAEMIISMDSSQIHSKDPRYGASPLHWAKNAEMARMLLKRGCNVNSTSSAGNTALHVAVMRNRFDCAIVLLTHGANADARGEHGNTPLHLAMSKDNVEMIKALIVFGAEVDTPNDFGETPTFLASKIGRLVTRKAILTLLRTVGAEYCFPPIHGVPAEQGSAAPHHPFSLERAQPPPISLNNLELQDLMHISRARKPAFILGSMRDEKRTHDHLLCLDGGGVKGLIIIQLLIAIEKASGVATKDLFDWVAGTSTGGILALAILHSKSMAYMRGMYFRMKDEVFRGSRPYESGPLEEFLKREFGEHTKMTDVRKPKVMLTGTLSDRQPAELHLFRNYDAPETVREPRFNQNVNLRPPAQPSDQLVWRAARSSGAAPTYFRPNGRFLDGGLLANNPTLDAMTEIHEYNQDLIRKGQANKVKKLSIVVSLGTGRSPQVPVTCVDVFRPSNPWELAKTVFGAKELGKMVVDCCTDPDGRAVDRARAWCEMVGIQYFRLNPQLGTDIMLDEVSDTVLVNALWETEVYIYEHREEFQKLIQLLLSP
Assay: mixed micelle-based modified Dole assay, GVIA iPLA2 inhibition
Format: biochemical
Settings: mole fraction of inhibitor in total substrate interface giving 50% inhibition
Report the value in mole fraction with no unit label.

Before answering, review these 3 worked examples.
> print(dat)
                                   compound  endpoint.result
1  O=C(CCCCCc1ccccc1)C(F)(F)F [12a, 1,1,1-Trifluoro-7-phenylheptan-2-one]           0.0025
2  O=C(CCCCCCc1ccccc1)C(F)(F)F [12b, 1,1,1-Trifluoro-8-phenyloctan-2-one]           0.0018
3  CCCCCCOc1ccc(CCC(=O)C(F)(F)C(F)(F)F)cc1 [compound 21]           0.0075

// moving on: another record for GVIA iPLA2 XI(50)
Record summary for CCCCCCCCCCCCCCCC(=O)C(F)(F)F [compound 6, palmitoyl trifluoromethyl ketone, reference compound] : reported GVIA iPLA2 XI(50) = 0.0195
